The reported numbers originate from ChEMBL document CHEMBL1156829.

Test description: NOVARTIS: Cytotoxicity against human hepatocellular carcinoma cell line (Huh7)
Format: toxicity, cell-based, Huh-7
Test settings: Huh7 cells (hepatocellular carcinoma cell line)
Reported metric: CC50

QUERY: Could you share which CC50 value was measured for "N#CC(=Cc1ccc(Sc2ccccc2)o1)c1nc2ccccc2[nH]1" ?
RESULT: > 100 µM

QUERY: Could you share which CC50 value was measured for "CC(C)N(CC(=O)Nc1cc(C(C)(C)C)nn1-c1ccc(Cl)c(Cl)c1)C(=O)c1ccc(Cl)c(Cl)c1" ?
RESULT: > 10 µM

QUERY: Could you share which CC50 value was measured for COC(=O)C1CCN(C(=O)COC(c2ccccc2)c2cccnc2Cl)CC1 (stereo not given) ?
RESULT: > 2.45 µM

QUERY: Could you share which CC50 value was measured for "CCOc1ccc(C=C(C#N)c2nc3ccccc3[nH]2)cc1OC" ?
RESULT: > 100 µM

QUERY: Could you share which CC50 value was measured for COc1cccc(NC(=O)c2ccc(NCCCN3CC(C)CC(C)C3)c([N+](=O)[O-])c2)c1 (stereo not given) ?
RESULT: > 100 µM
